Record form. Attribute: viability, T/C. Fill in for each entry.
tested on: 743489-274-T-PDC complex spheroid growth; assay: Anticancer human tumor 743489-274-T-PDC patient-derived renal cell carcinoma cell line growth inhibition [AhR]; details: second compound 10 µM; first compound 0.316 µM; active compounds read low
Numbers only, in %.

Consider the worked cases shown below.
Q: Output viability, T/C of Nc1ccccc1NC(=O)c1ccc(CNC(=O)OCc2cccnc2)cc1 + Cc1cncc(-c2nc(NCCc3c[nH]c4ccccc34)c3ncn(C(C)C)c3n2)c1
Ans: 106

Q: Item O=C(c1cc(Cc2n[nH]c(=O)c3ccccc23)ccc1F)N1CCN(C(=O)C2CC2)CC1 + CC(CO)NC(=O)c1cc(-c2ccc(Cl)cc2)nn(-c2cnn(C)c2)c1=O : provide viability, T/C
Ans: 97.9

Q: Find the measured viability, T/C of COc1cccc2c1C(=O)c1c(O)c3c(c(O)c1C2=O)CC(O)(C(=O)CO)CC3OC1CC(N)C(O)C(C)O1 (stereo unspecified) + CC(CO)NC(=O)c1cc(-c2ccc(Cl)cc2)nn(-c2cnn(C)c2)c1=O and report it.
Ans: 101

Q: Answer with the recorded viability, T/C of CC1(C)CCC(CN2CCN(c3ccc(C(=O)NS(=O)(=O)c4ccc(NCC5CCOCC5)c([N+](=O)[O-])c4)c(Oc4cnc5[nH]ccc5c4)c3)CC2)=C(c2ccc(Cl)cc2)C1 + Cc1cncc(-c2nc(NCCc3c[nH]c4ccccc34)c3ncn(C(C)C)c3n2)c1 only.
Ans: 112

Q: Given CC1COCCN1c1cc(C2(S(C)(=N)=O)CC2)nc(-c2ccnc3[nH]ccc23)n1 (stereo unspecified) + Cc1ccccc1N=Nc1ccc(NC(=O)c2ccnn2C)c(C)c1 , respond with its viability, T/C.
Ans: 87.4

New cases:
Q: Return value of viability, T/C for input COc1ccc([C@@H](O)c2cc(-c3ncnc4cc(N5CCOCC5)ccc34)c(F)cc2Cl)nn1 + Cc1cncc(-c2nc(NCCc3c[nH]c4ccccc34)c3ncn(C(C)C)c3n2)c1 , no commentary.
Ans: 102

###

system: 743489-274-T-PDC complex spheroid growth; assay: Anticancer human tumor 743489-274-T-PDC cell line growth inhibition [AhR]; details: second compound 0.1 µM; first compound 0.0316 µM; active compounds read low;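 note: spheroids exposed to agents for 7 days before readout; 100% = DMSO vehicle control wells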
measure name: viability, T/C (%)
One number for each entry, in %.

Below, 5 compounds whose answers are already recorded.
Q: Tell me viability, T/C reported for Cn1ncnc1C1c2n[nH]c(=O)c3cc(F)cc(c23)NC1c1ccc(F)cc1 (stereo unspecified) + Cc1cncc(-c2nc(NCCc3c[nH]c4ccccc34)c3ncn(C(C)C)c3n2)c1
Ans: 89.6

Q: // fetch viability, T/C given entry CC(C)c1c(-c2ccccc2)nc2c(C#N)c[nH]n2c1=O + CC(CO)NC(=O)c1cc(-c2ccc(Cl)cc2)nn(-c2cnn(C)c2)c1=O
Ans: 101

Q: Please supply the value of reported viability, T/C for the item COc1cc(C2c3cc4c(cc3C(OC3OC5COC(C)OC5C(O)C3O)C3COC(=O)C23)OCO4)cc(OC)c1O (stereo unspecified) + Cc1ccccc1N=Nc1ccc(NC(=O)c2ccnn2C)c(C)c1
Ans: 98.7

Q: Report viability, T/C, nothing else, for this compound: NS(=O)(=O)OCC1CC(n2ccc3c(NC4CCc5ccccc54)ncnc32)CC1O (stereo unspecified) + Cc1ccccc1N=Nc1ccc(NC(=O)c2ccnn2C)c(C)c1
Ans: 103

Q: Output measured viability, T/C for this item: CC[C@@]1(O)C(=O)OCc2c1cc1n(c2=O)Cc2cc3c(CN(C)C)c(O)ccc3nc2-1 + CC(CO)NC(=O)c1cc(-c2ccc(Cl)cc2)nn(-c2cnn(C)c2)c1=O
Ans: 86.6

Okay, next one:
Q: Provide measured viability, T/C value, entry: COc1cc(Nc2ncc3c(n2)-c2ccc(Cl)cc2C(c2c(F)cccc2OC)=NC3)ccc1C(=O)O + CC(CO)NC(=O)c1cc(-c2ccc(Cl)cc2)nn(-c2cnn(C)c2)c1=O
Ans: 96.9

###

tested on: 743489-274-T-PDC complex spheroid growth; experiment: Anticancer human tumor 743489-274-T-PDC cell line growth inhibition [AhR]; conditions: second compound 10 µM; first compound 0.316 µM; active compounds read low;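 note: spheroids exposed to agents for 7 days before readout; 100% = DMSO vehicle control wells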
measure name: viability, T/C (%)
Give bare numbers, in %.

Q: Return viability, T/C (reported value) for this compound: O=C(c1cc(Cc2n[nH]c(=O)c3ccccc23)ccc1F)N1CCN(C(=O)C2CC2)CC1 + Cc1cncc(-c2nc(NCCc3c[nH]c4ccccc34)c3ncn(C(C)C)c3n2)c1
Ans: 111

Q: Give the reported value of viability, T/C for this record: CC(C)c1c(-c2ccccc2)nc2c(C#N)c[nH]n2c1=O + CC(CO)NC(=O)c1cc(-c2ccc(Cl)cc2)nn(-c2cnn(C)c2)c1=O
Ans: 99.7

Q: Return reported viability, T/C. Input compound: CC1COCCN1c1cc(-c2ccnn2C)c2ccnc(-c3ccn[nH]3)c2n1 (stereo not given) + Cc1cncc(-c2nc(NCCc3c[nH]c4ccccc34)c3ncn(C(C)C)c3n2)c1
Ans: 124

Q: Supply recorded viability, T/C for COc1cccc2c1C(=O)c1c(O)c3c(c(O)c1C2=O)CC(O)(C(=O)CO)CC3OC1CC(N)C(O)C(C)O1 (stereo not given) + Cc1ccccc1N=Nc1ccc(NC(=O)c2ccnn2C)c(C)c1 here.
Ans: 95.1

Q: Give reported viability, T/C value for O=C(C=Cc1cccc(S(=O)(=O)Nc2ccccc2)c1)NO + Cc1ccccc1N=Nc1ccc(NC(=O)c2ccnn2C)c(C)c1
Ans: 64

Please report viability, T/C for every entry that follows.
1. CC(C)c1c(-c2ccccc2)nc2c(C#N)c[nH]n2c1=O + Cc1ccccc1N=Nc1ccc(NC(=O)c2ccnn2C)c(C)c1
2. COc1cc(Nc2ncc3c(n2)-c2ccc(Cl)cc2C(c2c(F)cccc2OC)=NC3)ccc1C(=O)O + CC(CO)NC(=O)c1cc(-c2ccc(Cl)cc2)nn(-c2cnn(C)c2)c1=O
3. NS(=O)(=O)OCC1CC(n2ccc3c(NC4CCc5ccccc54)ncnc32)CC1O (stereo not given) + Cc1cncc(-c2nc(NCCc3c[nH]c4ccccc34)c3ncn(C(C)C)c3n2)c1

Ans:
1. 104
2. 86.9
3. 106

###

system: 743489-274-T-PDC complex spheroid growth; test: Anticancer human tumor 743489-274-T-PDC cell line growth inhibition [AhR]; conditions: second compound 0.1 µM; first compound 0.949 µM; active compounds read low;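 note: spheroids exposed to agents for 7 days before readout; 100% = DMSO vehicle control wells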
measure name: viability, T/C (%)
Answers are plain numbers, in %.

Q: Indicate the recorded viability, T/C value for this compound: O=C(C=Cn1cnc(-c2cc(C(F)(F)F)cc(C(F)(F)F)c2)n1)NNc1cnccn1 + Cc1ccccc1N=Nc1ccc(NC(=O)c2ccnn2C)c(C)c1
Ans: 121

Q: Supply viability, T/C value. Item: O=C(C=Cn1cnc(-c2cc(C(F)(F)F)cc(C(F)(F)F)c2)n1)NNc1cnccn1 + Cc1cncc(-c2nc(NCCc3c[nH]c4ccccc34)c3ncn(C(C)C)c3n2)c1
Ans: 124

Q: For O=C(C=Cn1cnc(-c2cc(C(F)(F)F)cc(C(F)(F)F)c2)n1)NNc1cnccn1 + CC(CO)NC(=O)c1cc(-c2ccc(Cl)cc2)nn(-c2cnn(C)c2)c1=O , write its viability, T/C.
Ans: 114

Parameters: items (list). Returns: viability, T/C for each item.
1. CCN(c1cc(-c2ccc(CN3CCOCC3)cc2)cc(C(=O)NCc2c(C)cc(C)[nH]c2=O)c1C)C1CCOCC1 + CC(CO)NC(=O)c1cc(-c2ccc(Cl)cc2)nn(-c2cnn(C)c2)c1=O
2. CCN(c1cc(-c2ccc(CN3CCOCC3)cc2)cc(C(=O)NCc2c(C)cc(C)[nH]c2=O)c1C)C1CCOCC1 + Cc1cncc(-c2nc(NCCc3c[nH]c4ccccc34)c3ncn(C(C)C)c3n2)c1
3. CCN(c1cc(-c2ccc(CN3CCOCC3)cc2)cc(C(=O)NCc2c(C)cc(C)[nH]c2=O)c1C)C1CCOCC1 + Cc1ccccc1N=Nc1ccc(NC(=O)c2ccnn2C)c(C)c1

Ans:
93.8
92.7
90.8

###

Test system: 743489-274-T-PDC complex spheroid growth
Assay: Anticancer human tumor 743489-274-T-PDC cell line growth inhibition [AhR];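 note: spheroids exposed to agents for 7 days before readout; 100% = DMSO vehicle control wells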
Conditions: second compound 1 µM; first compound 0.949 µM; active compounds read low
From the text: Multicellular complex tumor spheroid response to aryl hydrocarbon receptor antagonists in combination with a variety of drugs and investigational agents in selected tumor cell lines […] Compounds. […] If the clinical Cmax for an agent had not been determined, the highest concentration tested was 10 microM (Table 1). […]
Please provide measured viability, T/C for the entries that follow.
Answers are plain numbers, in %.

Q: Return viability, T/C for the following compound: CCN(c1cc(-c2ccc(CN3CCOCC3)cc2)cc(C(=O)NCc2c(C)cc(C)[nH]c2=O)c1C)C1CCOCC1 + Cc1ccccc1N=Nc1ccc(NC(=O)c2ccnn2C)c(C)c1
Ans: 81

Would you be so kind as to report viability, T/C for each listed record?
1. O=C(C=Cn1cnc(-c2cc(C(F)(F)F)cc(C(F)(F)F)c2)n1)NNc1cnccn1 + Cc1ccccc1N=Nc1ccc(NC(=O)c2ccnn2C)c(C)c1
2. CCN(c1cc(-c2ccc(CN3CCOCC3)cc2)cc(C(=O)NCc2c(C)cc(C)[nH]c2=O)c1C)C1CCOCC1 + Cc1cncc(-c2nc(NCCc3c[nH]c4ccccc34)c3ncn(C(C)C)c3n2)c1

Ans:
110
104
